# Target System: CAMK1D (human)
# Run Description: radiometric filter-binding kinase assay, Kinase HotSpot
# Stated Conditions: compound 0.5 µM; ATP 10 µM
Each entry below lists one item and its recorded residual activity value.
Measured Property: residual activity (%)

- Smiles: "CNc1cc2c(Nc3cccc(Br)c3)ncnc2cn1"
  Measured Property: "residual activity"
  Display Unit: "%"
  Val: 92.5
- Smiles: "O=S(=O)(c1cccc2cnccc12)N1CCCNCC1"
  Measured Property: "residual activity"
  Display Unit: "%"
  Val: 91.5
- Smiles: "Cc1ccc(Nc2nccc(N(C)c3ccc4c(C)n(C)nc4c3)n2)cc1S(N)(=O)=O"
  Measured Property: "residual activity"
  Display Unit: "%"
  Val: 91.5
- Smiles: "O=c1cc(N2CCOCC2)oc2c1ccc1ccccc12"
  Measured Property: "residual activity"
  Display Unit: "%"
  Val: 91.1

###

Recorded residual activity by entry
# Target System: ADRBK1 (human)
# Run Description: radiometric filter-binding kinase assay, Kinase HotSpot
# Stated Conditions: compound 0.5 µM; ATP 10 µM

- Smiles: "O=S(=O)(c1cccc2cnccc12)N1CCCNCC1"
  Display Unit: "%"
  residual activity: 105
- Smiles: "COc1ccc2c(c[n+](C)c3c4cc5c(cc4ccc23)OCO5)c1OC"
  Display Unit: "%"
  residual activity: 96.6
- Smiles: "Cc1ccc(S(=O)(=O)/C=C/C#N)cc1"
  Display Unit: "%"
  residual activity: 102
- Smiles: "O=c1cc(N2CCOCC2)oc2c1ccc1ccccc12"
  Display Unit: "%"
  residual activity: 98.9
- Smiles: "O=C1NC(=O)/C(=C/c2ccc3c(c2)OC(F)(F)O3)S1"
  Display Unit: "%"
  residual activity: 103
- Smiles: "c1ccc(-c2n[nH]c3c2oc2ccccc23)cc1"
  Display Unit: "%"
  residual activity: 104
- Smiles: "CC[n+]1c(/C=C/N(C)c2ccccc2)n(-c2ccccc2)c2ccc(-c3nc4ccccc4s3)cc21"
  Display Unit: "%"
  residual activity: 87.5
- Smiles: "Cc1ccc(Nc2nccc(N(C)c3ccc4c(C)n(C)nc4c3)n2)cc1S(N)(=O)=O"
  Display Unit: "%"
  residual activity: 90.3
- Smiles: "CC(=O)c1ccc(N2CCOCC2)cc1O"
  Display Unit: "%"
  residual activity: 99

###

# Target System: ZAP70 (human) (UniProt P43403)
# Sequence (P43403 whole entry, looked up): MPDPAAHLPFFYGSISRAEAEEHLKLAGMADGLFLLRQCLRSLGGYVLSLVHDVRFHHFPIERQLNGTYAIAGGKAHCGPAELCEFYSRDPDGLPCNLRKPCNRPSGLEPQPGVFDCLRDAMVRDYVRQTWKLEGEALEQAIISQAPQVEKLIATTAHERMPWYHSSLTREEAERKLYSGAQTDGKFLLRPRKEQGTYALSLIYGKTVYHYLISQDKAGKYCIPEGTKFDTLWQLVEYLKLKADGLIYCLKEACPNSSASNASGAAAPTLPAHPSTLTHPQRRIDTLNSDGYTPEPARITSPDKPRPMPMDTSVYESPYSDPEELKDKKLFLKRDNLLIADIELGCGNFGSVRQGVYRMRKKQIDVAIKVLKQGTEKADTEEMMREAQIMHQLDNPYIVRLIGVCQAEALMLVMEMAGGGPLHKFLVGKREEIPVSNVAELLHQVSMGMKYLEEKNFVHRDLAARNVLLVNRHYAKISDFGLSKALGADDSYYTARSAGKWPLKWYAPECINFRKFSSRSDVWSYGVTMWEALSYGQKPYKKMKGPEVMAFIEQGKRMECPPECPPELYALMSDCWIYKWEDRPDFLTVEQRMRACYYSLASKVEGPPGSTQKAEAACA
# Run Description: radiometric filter-binding kinase assay, Kinase HotSpot
# Stated Conditions: compound 0.5 µM; ATP 10 µM
In this section, each of the compounds is paired with its reported residual activity.

- Smiles: "CC(C)N(CCC(=O)c1ccc2ccccc2c1)Cc1ccccc1"
  Display Unit: "%"
  residual activity: 93.7
- Smiles: "CC#CC(=O)Nc1cc2c(Nc3ccc(F)c(Cl)c3)ncnc2cn1"
  Display Unit: "%"
  residual activity: 90.4
- Smiles: "O=C1NC(=O)C(c2cn(CCCn3ccnc3)c3ccccc23)=C1Nc1ccccc1"
  Display Unit: "%"
  residual activity: 104
- Smiles: "COc1cc2ncnc(Nc3cccc(Cl)c3)c2cc1OC"
  Display Unit: "%"
  residual activity: 102
- Smiles: "Cc1ccc(S(=O)(=O)/C=C/C#N)cc1"
  Display Unit: "%"
  residual activity: 97.5
- Smiles: "CC[n+]1c(/C=C/N(C)c2ccccc2)n(-c2ccccc2)c2ccc(-c3nc4ccccc4s3)cc21"
  Display Unit: "%"
  residual activity: 95.5
- Smiles: "CNc1cc2c(Nc3cccc(Br)c3)ncnc2cn1"
  Display Unit: "%"
  residual activity: 99.1
- Smiles: "c1ccc(-c2n[nH]cc2-c2ccnc3ccccc23)nc1"
  Display Unit: "%"
  residual activity: 100

###

# Target System: DAPK2 (human)
# Run Description: radiometric filter-binding kinase assay, Kinase HotSpot
# Stated Conditions: compound 0.5 µM; ATP 10 µM

- Smiles: "O=S(=O)(c1cccc2cnccc12)N1CCCNCC1"
  residual activity: "83.6%"
- Smiles: "CCCC(=O)Oc1ccc2[nH]c(C(=O)c3cc4ccccc4[nH]3)cc2c1"
  residual activity: "88.4%"
- Smiles: "O=C(Nc1cccc(Nc2nccc(Nc3cccc(C(F)(F)F)c3)n2)c1)C1CC1"
  residual activity: "120%"
- Smiles: "CCN(CC)CCNC(=O)c1c(C)[nH]c(/C=C2\\C(=O)Nc3ccc(Cl)cc32)c1C"
  residual activity: "86.7%"
- Smiles: "Cc1ccc(NC2=CC(=O)c3sc(C)nc3C2=O)cc1"
  residual activity: "91.9%"

###

# Target System: EPHA1 (human)
# Run Description: radiometric filter-binding kinase assay, Kinase HotSpot
# Stated Conditions: compound 0.5 µM; ATP 10 µM

- Smiles: "CCC(=O)Nc1ccc2ncnc(Nc3cccc(Br)c3)c2c1"
  residual activity (%): 89.5
- Smiles: "CC#CC(=O)Nc1cc2c(Nc3ccc(F)c(Cl)c3)ncnc2cn1"
  residual activity (%): 88.3
- Smiles: "O=C1Nc2ccc(Cl)cc2/C1=C/c1cc(Cl)c(O)c(Cl)c1"
  residual activity (%): 88.9
- Smiles: "CNC(=O)c1cc(Oc2ccc(NC(=O)Nc3ccc(Cl)c(C(F)(F)F)c3)cc2)ccn1"
  residual activity (%): 87.7

###

Quick reference: residual activity of the listed items.
# Target System: NTRK3 (human)
# Run Description: radiometric filter-binding kinase assay, Kinase HotSpot
# Stated Conditions: compound 0.5 µM; ATP 10 µM

- Smiles: "Cc1[nH]c(/C=C2\\C(=O)Nc3ccc(S(=O)(=O)N(C)c4cccc(Cl)c4)cc32)c(C)c1C(=O)N1CCN(C)CC1"
  Display Unit: "%"
  residual activity: 5.93
- Smiles: "COc1ccc2c(c[n+](C)c3c4cc5c(cc4ccc23)OCO5)c1OC"
  Display Unit: "%"
  residual activity: 95.2
- Smiles: "CCN(CC)CCNC(=O)c1c(C)[nH]c(/C=C2\\C(=O)Nc3ccc(Cl)cc32)c1C"
  Display Unit: "%"
  residual activity: 1.87

###

# Target System: TNK2 (human) (UniProt Q07912)
# Sequence (Q07912 whole entry, looked up): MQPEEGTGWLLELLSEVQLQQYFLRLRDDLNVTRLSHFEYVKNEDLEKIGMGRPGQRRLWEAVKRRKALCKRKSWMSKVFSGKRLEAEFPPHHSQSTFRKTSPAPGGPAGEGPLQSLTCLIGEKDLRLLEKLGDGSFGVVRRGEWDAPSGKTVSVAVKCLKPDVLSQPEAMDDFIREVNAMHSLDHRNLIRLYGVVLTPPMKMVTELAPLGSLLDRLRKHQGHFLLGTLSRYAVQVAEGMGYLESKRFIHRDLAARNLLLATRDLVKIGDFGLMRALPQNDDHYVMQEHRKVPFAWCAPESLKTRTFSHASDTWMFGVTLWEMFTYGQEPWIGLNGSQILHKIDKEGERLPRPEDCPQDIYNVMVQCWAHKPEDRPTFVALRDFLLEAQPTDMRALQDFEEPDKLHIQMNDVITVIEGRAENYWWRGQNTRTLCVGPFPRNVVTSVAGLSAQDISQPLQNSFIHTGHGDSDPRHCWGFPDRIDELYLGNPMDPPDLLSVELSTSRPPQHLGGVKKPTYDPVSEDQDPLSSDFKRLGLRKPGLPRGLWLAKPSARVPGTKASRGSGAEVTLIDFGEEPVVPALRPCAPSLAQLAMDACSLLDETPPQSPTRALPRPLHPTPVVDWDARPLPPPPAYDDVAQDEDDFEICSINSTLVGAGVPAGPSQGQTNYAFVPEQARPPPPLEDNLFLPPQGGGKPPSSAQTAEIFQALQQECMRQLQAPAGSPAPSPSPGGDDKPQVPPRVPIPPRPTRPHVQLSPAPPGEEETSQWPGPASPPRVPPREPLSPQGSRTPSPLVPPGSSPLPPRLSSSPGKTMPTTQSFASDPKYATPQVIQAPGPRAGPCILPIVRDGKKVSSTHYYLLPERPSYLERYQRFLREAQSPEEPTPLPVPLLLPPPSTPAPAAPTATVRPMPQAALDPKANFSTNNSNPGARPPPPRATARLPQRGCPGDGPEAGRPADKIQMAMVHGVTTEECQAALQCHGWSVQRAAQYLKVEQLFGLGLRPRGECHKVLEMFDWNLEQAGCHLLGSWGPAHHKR
# Run Description: radiometric filter-binding kinase assay, Kinase HotSpot
# Stated Conditions: compound 0.5 µM; ATP 10 µM

- Compound: "CNC(=O)c1cc(Oc2ccc(NC(=O)Nc3ccc(Cl)c(C(F)(F)F)c3)cc2)ccn1"
  residual activity / %: 97.6
- Compound: "O=C1NC(=O)C(c2cn(CCCn3ccnc3)c3ccccc23)=C1Nc1ccccc1"
  residual activity / %: 65.9
- Compound: "CO[C@H]1CC2CC[C@@H](C)[C@@](O)(O2)C(=O)C(=O)N2CCCC[C@H]2C(=O)OC([C@H](C)C[C@@H]2CC[C@@H](O)[C@H](OC)C2)CC(=O)[C@H](C)/C=C(\\C)[C@@H](O)[C@@H](OC)C(=O)[C@H](C)C[C@H](C)/C=C/C=C/C=C/1C (stereo partly specified)"
  residual activity / %: 98.5
- Compound: "c1ccc(-c2n[nH]c3c2oc2ccccc23)cc1"
  residual activity / %: 85.8
- Compound: "CCC(=O)Nc1ccc2ncnc(Nc3cccc(Br)c3)c2c1"
  residual activity / %: 93.5
- Compound: "CC(=O)c1ccc(N2CCOCC2)cc1O"
  residual activity / %: 101
- Compound: "Nc1cccc(-c2cc3c(Oc4cccc(O)c4)ncnc3[nH]2)c1"
  residual activity / %: 19.6
- Compound: "N#CC(C#N)=C(N)/C(C#N)=C/c1ccc(O)cc1"
  residual activity / %: 98.1
- Compound: "CNc1cc2c(Nc3cccc(Br)c3)ncnc2cn1"
  residual activity / %: 30.3
- Compound: "Cc1ccc(Nc2nccc(N(C)c3ccc4c(C)n(C)nc4c3)n2)cc1S(N)(=O)=O"
  residual activity / %: 90.2
- Compound: "Nc1ncnc2[nH]nc(Nc3ccc(F)cc3)c12"
  residual activity / %: 61.5
- Compound: "Nc1ncnc2c1c(-c1ccc(Oc3ccccc3)cc1)cn2C1CCCC1"
  residual activity / %: 2.7
- Compound: "O=c1cc(N2CCOCC2)oc2c1ccc1ccccc12"
  residual activity / %: 100
- Compound: "CCCC(=O)Oc1ccc2[nH]c(C(=O)c3cc4ccccc4[nH]3)cc2c1"
  residual activity / %: 77.7
- Compound: "O=S(=O)(c1cccc2cnccc12)N1CCCNCC1"
  residual activity / %: 89.4
- Compound: "CC(C)N(CCC(=O)c1ccc2ccccc2c1)Cc1ccccc1"
  residual activity / %: 92.4

###

Listed next: entries and their corresponding residual activity.
# Target System: UniProtKB Q9H2K8
# Sequence (Q9H2K8 whole entry, looked up): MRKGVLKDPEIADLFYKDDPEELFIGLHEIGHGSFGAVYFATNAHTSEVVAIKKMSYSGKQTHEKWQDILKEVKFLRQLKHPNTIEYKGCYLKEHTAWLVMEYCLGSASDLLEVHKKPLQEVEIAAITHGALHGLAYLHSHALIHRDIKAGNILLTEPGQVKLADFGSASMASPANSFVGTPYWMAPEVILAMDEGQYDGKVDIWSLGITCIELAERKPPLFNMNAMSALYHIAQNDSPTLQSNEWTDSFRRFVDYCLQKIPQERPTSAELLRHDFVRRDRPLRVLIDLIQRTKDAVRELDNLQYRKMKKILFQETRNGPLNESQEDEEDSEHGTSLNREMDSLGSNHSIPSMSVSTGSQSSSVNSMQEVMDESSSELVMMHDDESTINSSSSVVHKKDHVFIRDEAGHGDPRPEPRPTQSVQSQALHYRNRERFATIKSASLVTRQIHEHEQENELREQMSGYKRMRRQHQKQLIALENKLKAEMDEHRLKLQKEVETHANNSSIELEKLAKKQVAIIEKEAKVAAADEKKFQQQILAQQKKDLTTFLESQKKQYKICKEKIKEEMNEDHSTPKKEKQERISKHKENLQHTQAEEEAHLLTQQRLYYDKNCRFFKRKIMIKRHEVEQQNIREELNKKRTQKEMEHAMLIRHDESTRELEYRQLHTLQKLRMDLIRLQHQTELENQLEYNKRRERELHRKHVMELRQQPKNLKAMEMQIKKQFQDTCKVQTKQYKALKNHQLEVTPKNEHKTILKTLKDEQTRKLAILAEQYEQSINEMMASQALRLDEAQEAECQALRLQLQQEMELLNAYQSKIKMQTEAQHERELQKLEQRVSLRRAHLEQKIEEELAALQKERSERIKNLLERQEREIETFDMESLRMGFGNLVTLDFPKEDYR
# Run Description: radiometric filter-binding kinase assay, Kinase HotSpot
# Stated Conditions: compound 0.5 µM; ATP 10 µM

- Compound: "CC(=O)c1ccc(N2CCOCC2)cc1O"
  Target System: "UniProtKB Q9H2K8"
  residual activity [%]: 98.4
- Compound: "CC[n+]1c(/C=C/N(C)c2ccccc2)n(-c2ccccc2)c2ccc(-c3nc4ccccc4s3)cc21"
  Target System: "UniProtKB Q9H2K8"
  residual activity [%]: 116
- Compound: "COc1cc2ncnc(Nc3cccc(Cl)c3)c2cc1OC"
  Target System: "UniProtKB Q9H2K8"
  residual activity [%]: 90.4
- Compound: "Nc1ncnc2c1c(-c1ccc(Oc3ccccc3)cc1)cn2C1CCCC1"
  Target System: "UniProtKB Q9H2K8"
  residual activity [%]: 92.9
- Compound: "CO[C@H]1CC2CC[C@@H](C)[C@@](O)(O2)C(=O)C(=O)N2CCCC[C@H]2C(=O)OC([C@H](C)C[C@@H]2CC[C@@H](O)[C@H](OC)C2)CC(=O)[C@H](C)/C=C(\\C)[C@@H](O)[C@@H](OC)C(=O)[C@H](C)C[C@H](C)/C=C/C=C/C=C/1C (stereo partly drawn)"
  Target System: "UniProtKB Q9H2K8"
  residual activity [%]: 106
- Compound: "Cc1ccc(Nc2nccc(N(C)c3ccc4c(C)n(C)nc4c3)n2)cc1S(N)(=O)=O"
  Target System: "UniProtKB Q9H2K8"
  residual activity [%]: 55.5
- Compound: "CCN(CC)CCNC(=O)c1c(C)[nH]c(/C=C2\\C(=O)Nc3ccc(Cl)cc32)c1C"
  Target System: "UniProtKB Q9H2K8"
  residual activity [%]: 45.5
- Compound: "CCCC(=O)Oc1ccc2[nH]c(C(=O)c3cc4ccccc4[nH]3)cc2c1"
  Target System: "UniProtKB Q9H2K8"
  residual activity [%]: 86.7
